src = patent US8916599B2

Molecular target: recombinant human mPGES-1 (Homo sapiens, UniProt O14684)
Construct: made in house; host or cells: Rosetta E. coli (microsomal/membrane fraction)
Sequence (O14684 whole entry): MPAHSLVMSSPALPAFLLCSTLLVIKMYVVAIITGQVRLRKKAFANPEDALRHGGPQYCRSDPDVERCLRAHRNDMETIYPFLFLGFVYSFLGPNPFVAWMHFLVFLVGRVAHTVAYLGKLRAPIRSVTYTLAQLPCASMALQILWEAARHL
Experiment: mPGES-1 inhibition test (microsomes, PGH2 substrate, HTRF detection of PGE2)
Format: biochemical
Conditions: inhibition of mPGES-1 at 10 μM
MEASURED_ATTRIBUTE: inhibition at 10 µM (%)

- COMPOUND: "Cn1c(Nc2c(F)cccc2Cl)nc2cc(C(=O)NC3CCC4(CC3)CC4)ccc21"
  SYSTEM_TESTED: "recombinant human mPGES-1 (Homo sapiens, UniProt O14684)"
  RESULT_VALUE: 97
- COMPOUND: "O=C(N[C@H]1CC[C@H](C(F)(F)F)CC1)c1cc2nc(Nc3c(F)ccc(F)c3Cl)[nH]c2cc1OCC(F)(F)F"
  SYSTEM_TESTED: "recombinant human mPGES-1 (Homo sapiens, UniProt O14684)"
  RESULT_VALUE: 94
- COMPOUND: "Cn1c(Nc2c(Cl)cccc2Cl)nc2cc(C(=O)Nc3cc(Cl)ccn3)cc(Br)c21"
  SYSTEM_TESTED: "recombinant human mPGES-1 (Homo sapiens, UniProt O14684)"
  RESULT_VALUE: 98
- COMPOUND: "Cn1c(Nc2c(Cl)cccc2Cl)nc2cc(C(=O)Nc3cc(Cl)ccn3)c(F)cc21"
  SYSTEM_TESTED: "recombinant human mPGES-1 (Homo sapiens, UniProt O14684)"
  RESULT_VALUE: 92
- COMPOUND: "Cc1cc(C(=O)Nc2ccc(Cl)c(F)c2)cc2nc(Nc3c(Cl)cccc3Cl)[nH]c12"
  SYSTEM_TESTED: "recombinant human mPGES-1 (Homo sapiens, UniProt O14684)"
  RESULT_VALUE: 100
- COMPOUND: "CCCC[C@@H](C)NC(=O)c1cc2nc(Nc3c(Cl)cccc3Cl)[nH]c2cc1F"
  SYSTEM_TESTED: "recombinant human mPGES-1 (Homo sapiens, UniProt O14684)"
  RESULT_VALUE: 100
- COMPOUND: "COc1cc2[nH]c(Nc3c(Cl)ccc(Cl)c3F)nc2cc1C(=O)NC1CCC2(CC1)CC2"
  SYSTEM_TESTED: "recombinant human mPGES-1 (Homo sapiens, UniProt O14684)"
  RESULT_VALUE: 91
- COMPOUND: "CCC1CCC(NC(=O)c2cc3nc(Nc4c(Cl)cccc4Cl)n(C)c3cc2F)C1 (centres unmarked)"
  SYSTEM_TESTED: "recombinant human mPGES-1 (Homo sapiens, UniProt O14684)"
  RESULT_VALUE: 100
- COMPOUND: "O=C(Nc1cccc(Cl)c1)c1cc(Br)c2[nH]c(Nc3c(Cl)cccc3Cl)nc2c1"
  SYSTEM_TESTED: "recombinant human mPGES-1 (Homo sapiens, UniProt O14684)"
  RESULT_VALUE: 100
- COMPOUND: "Cn1c(Nc2c(Cl)cccc2Cl)nc2cc(C(=O)NCCc3cccnc3)ccc21"
  SYSTEM_TESTED: "recombinant human mPGES-1 (Homo sapiens, UniProt O14684)"
  RESULT_VALUE: 89
- COMPOUND: "O=C(Nc1ccc(Cl)c(Cl)c1)c1ccc2[nH]c(Nc3c(Cl)cccc3Cl)nc2c1"
  SYSTEM_TESTED: "recombinant human mPGES-1 (Homo sapiens, UniProt O14684)"
  RESULT_VALUE: 100
- COMPOUND: "Cc1cc(C)nc(NC(=O)c2ccc3[nH]c(Nc4c(Cl)cccc4Cl)nc3c2)c1"
  SYSTEM_TESTED: "recombinant human mPGES-1 (Homo sapiens, UniProt O14684)"
  RESULT_VALUE: 100
- COMPOUND: "O=C(NC1CCC2(CC1)CC2)c1cc2nc(Nc3c(Cl)ccc(Cl)c3F)[nH]c2cc1F"
  SYSTEM_TESTED: "recombinant human mPGES-1 (Homo sapiens, UniProt O14684)"
  RESULT_VALUE: 92
- COMPOUND: "CO[C@H]1CC[C@H](NC(=O)c2ccc3[nH]c(Nc4c(Cl)cccc4Cl)nc3c2)CC1"
  SYSTEM_TESTED: "recombinant human mPGES-1 (Homo sapiens, UniProt O14684)"
  RESULT_VALUE: 64
- COMPOUND: "CC(C)[C@H]1CC[C@H](NC(=O)c2cc3nc(Nc4c(Cl)cccc4Cl)[nH]c3cc2F)CC1"
  SYSTEM_TESTED: "recombinant human mPGES-1 (Homo sapiens, UniProt O14684)"
  RESULT_VALUE: 100
- COMPOUND: "Cn1c(Nc2c(Cl)cccc2Cl)nc2cc(C(=O)NCc3cccc(C(F)(F)F)n3)ccc21"
  SYSTEM_TESTED: "recombinant human mPGES-1 (Homo sapiens, UniProt O14684)"
  RESULT_VALUE: 92
- COMPOUND: "O=C(Nc1ccccc1C(F)(F)F)c1ccc2[nH]c(Nc3c(Cl)cccc3Cl)nc2c1"
  SYSTEM_TESTED: "recombinant human mPGES-1 (Homo sapiens, UniProt O14684)"
  RESULT_VALUE: 91
- COMPOUND: "CCOc1cc2c(cc1C(=O)NC1CCC(C)(C)CC1)nc(Nc1c(Cl)ccc(Cl)c1F)n2C"
  SYSTEM_TESTED: "recombinant human mPGES-1 (Homo sapiens, UniProt O14684)"
  RESULT_VALUE: 97
- COMPOUND: "Cc1cc(C)nc(NC(=O)c2cc3nc(Nc4c(Cl)cccc4Cl)n(C)c3cc2F)c1"
  SYSTEM_TESTED: "recombinant human mPGES-1 (Homo sapiens, UniProt O14684)"
  RESULT_VALUE: 100
- COMPOUND: "COc1cc2c(cc1C(=O)NC1CCCCC1)nc(Nc1c(Cl)cccc1Cl)n2C"
  SYSTEM_TESTED: "recombinant human mPGES-1 (Homo sapiens, UniProt O14684)"
  RESULT_VALUE: 100
- COMPOUND: "O=C(NCc1ccc(C(F)(F)F)cn1)c1ccc2[nH]c(Nc3c(Cl)cccc3Cl)nc2c1"
  SYSTEM_TESTED: "recombinant human mPGES-1 (Homo sapiens, UniProt O14684)"
  RESULT_VALUE: 74
- COMPOUND: "CC(C)NC(=O)c1cc(Br)c2c(c1)nc(Nc1c(Cl)cccc1Cl)n2C"
  SYSTEM_TESTED: "recombinant human mPGES-1 (Homo sapiens, UniProt O14684)"
  RESULT_VALUE: 75
- COMPOUND: "N#Cc1cccc(NC(=O)c2ccc3[nH]c(Nc4c(Cl)cccc4Cl)nc3c2)c1"
  SYSTEM_TESTED: "recombinant human mPGES-1 (Homo sapiens, UniProt O14684)"
  RESULT_VALUE: 100
- COMPOUND: "O=C(Nc1cc(Cl)nc(Cl)c1)c1ccc2[nH]c(Nc3c(Cl)cccc3Cl)nc2c1"
  SYSTEM_TESTED: "recombinant human mPGES-1 (Homo sapiens, UniProt O14684)"
  RESULT_VALUE: 98
- COMPOUND: "Cn1c(Nc2c(Cl)cccc2Cl)nc2cc(C(=O)NC3CCC(C)(C)CC3)c(F)cc21"
  SYSTEM_TESTED: "recombinant human mPGES-1 (Homo sapiens, UniProt O14684)"
  RESULT_VALUE: 100
- COMPOUND: "CC1CCC(NC(=O)c2ccc3[nH]c(Nc4c(Cl)cccc4Cl)nc3c2)CC1 (centres unmarked)"
  SYSTEM_TESTED: "recombinant human mPGES-1 (Homo sapiens, UniProt O14684)"
  RESULT_VALUE: 96
- COMPOUND: "O=C(Nc1cc(Cl)ccn1)c1ccc2c(c1)nc(Nc1c(Cl)cccc1Cl)n2CC(=O)N1CCOCC1"
  SYSTEM_TESTED: "recombinant human mPGES-1 (Homo sapiens, UniProt O14684)"
  RESULT_VALUE: 96
- COMPOUND: "CC(=O)NCCCn1c(Nc2c(Cl)cccc2Cl)nc2cc(C(=O)Nc3cc(Cl)ccn3)ccc21"
  SYSTEM_TESTED: "recombinant human mPGES-1 (Homo sapiens, UniProt O14684)"
  RESULT_VALUE: 94
- COMPOUND: "Cn1c(Nc2c(Cl)cccc2Cl)nc2cc(C(=O)NCCC3CCC3)c(F)cc21"
  SYSTEM_TESTED: "recombinant human mPGES-1 (Homo sapiens, UniProt O14684)"
  RESULT_VALUE: 99
- COMPOUND: "O=C(Nc1cccc(Cl)n1)c1ccc2[nH]c(Nc3c(Cl)cccc3Cl)nc2c1"
  SYSTEM_TESTED: "recombinant human mPGES-1 (Homo sapiens, UniProt O14684)"
  RESULT_VALUE: 98
- COMPOUND: "O=C(NC1CCCC(O)C1)c1ccc2[nH]c(Nc3c(Cl)cccc3Cl)nc2c1 (centres unmarked)"
  SYSTEM_TESTED: "recombinant human mPGES-1 (Homo sapiens, UniProt O14684)"
  RESULT_VALUE: 64
- COMPOUND: "O=C(NC1COc2ccccc2C1)c1ccc2[nH]c(Nc3c(Cl)cccc3Cl)nc2c1 (centres unmarked)"
  SYSTEM_TESTED: "recombinant human mPGES-1 (Homo sapiens, UniProt O14684)"
  RESULT_VALUE: 98
